meta.source: PubChem BioAssay AID670

target_of_assay: M-phase inducer phosphatase 2 (Homo sapiens)
test_protocol: Cdc25B phosphatase blockers with beta-mercaptoethanol – biochemical, beta-mercaptoethanol present, catalytic domain, IC50, Cdc25B inhibitor project, late-stage follow-up (AID 670)
assay_setup: recombinant Cdc25B phosphatase activity
pIC50: −log10 of the molar value.
measurement_type: pIC50

A = COc1cccc2c1NC(C(=O)O)C1CC=CC21 (configuration not stated)
B = O=C(OC1CCCCC1)c1ccc2c(c1)C1C=CCC1C(C(=O)O)N2 (configuration not stated)
Request: Which has the smaller recorded pIC50, A or B ? Mark your answer with the label of the selected entry.
Result: A
(A: 5.09, B: 5.42)
